System: DU-145 prostate
Experiment: NCI tumour cell line growth inhibition, 48 h
quantity: TGI

molecule	measured-on	quantity	measured-result
O=[As]c1ccc(C(=O)c2ccc(Oc3ccccc3)cc2)cc1 (stereo not given)	DU-145 prostate	TGI	0.123 µM
CN(C)CCNc1nc2c(no[n+]2[O-])c2ccccc12	DU-145 prostate	TGI	> 100 µM
C=CCCC(=O)N1C=CC(=O)[C@H](O)[C@@H]1/C=C/c1ccccc1	DU-145 prostate	TGI	> 32.5 µM
COc1cc([C@@H]2c3cc4c(cc3C(OC3O[C@@H]5COC(C)O[C@H]5[C@H](O)[C@H]3O)C3COC(=O)[C@@H]32)OCO4)cc(OC)c1O (stereo not given in full)	DU-145 prostate	TGI	5.78 µM
CN1C(=O)N(C)C2(CCN(CCCCCCF)CC2)C1=O	DU-145 prostate	TGI	> 100 µM
NS(=O)(=O)c1ccc(NC(=O)Nc2ccccc2F)cc1	DU-145 prostate	TGI	> 100 µM
OC(COc1cccc2ccccc12)CN1CCN(c2ccccc2Cl)CC1 (stereo not given)	DU-145 prostate	TGI	28.5 µM
CCCn1c(N)c(C(=O)CNc2ccc(I)cc2)c(=O)[nH]c1=O	DU-145 prostate	TGI	> 100 µM
CCCCCCNC(=O)Oc1ccc(/C(=C(\C)c2ccccc2)c2ccc(OCCN(CC)CC)cc2)cc1	DU-145 prostate	TGI	14.6 µM
N=C(N)SCCc1ccccn1	DU-145 prostate	TGI	> 100 µM
